protocol.text: in vitro
condition.summary: human, hela cells, % viability
measure.name: viability at 28.5 h, 10 µM

>>> experimental_value("Cc1ccc(Cn2nc(NC(=O)c3cccn3C)c3ccccc32)cc1")
"97.4%"
>>> experimental_value("OC1(Cn2ccc3ncccc32)CCN(CC2CC=CCC2)CC1 (centres unmarked)")
"93.6%"
>>> experimental_value("Cc1ccc(-c2ccc(CCC(=O)O)n2CC(=O)O)cc1")
"94.8%"
>>> experimental_value("COc1ccc(C2OCCN2C(C)=O)cc1 (centres unmarked)")
"80.8%"
>>> experimental_value("Cc1cc(C)c2c(n1)OC(N1CCOCC1)(C(F)(F)F)CC2=O (centres unmarked)")
"79.2%"
>>> experimental_value("O=C(c1ccncc1)N1CCCn2nc(-c3cccnc3)cc2C1")
"88.7%"
>>> experimental_value("CCn1c(C)nnc1SCC(=O)Nc1cc(C(F)(F)F)ccc1Cl")
"91.7%"
>>> experimental_value("Cc1noc(C)c1CN(C)C(=O)NC1CCCc2c1cnn2CCO (centres unmarked)")
"92.5%"
>>> experimental_value("CSc1cccc(NC(=O)Nc2ccc3c(c2)OCCO3)c1")
"104%"
>>> experimental_value("NS(=O)(=O)c1ccc(CNS(=O)(=O)Cc2ccccc2)cc1")
"87%"
>>> experimental_value("Cc1ccc(S(=O)(=O)N2CCN(C)CC2)cc1NC(=O)c1ccc(Br)o1 [CBK034260C]")
"99.3%"
>>> experimental_value("CN(C)S(=O)(=O)c1cccc(C(=O)NCCc2ccccc2)c1")
"91.3%"
>>> experimental_value("CCOC(=O)c1c(NC(C)=O)nc2n1CCS2")
"98.5%"
>>> experimental_value("Cc1onc(-c2ccccc2)c1CNC(=O)[C@@H]1CCCN1C")
"89.8%"
>>> experimental_value("CC(C)C[C@H](NC(=O)OC(C)(C)C)C(=O)N1CCC(C(=O)O)CC1")
"80.6%"
>>> experimental_value("COc1ccc(C(=O)N2CCC3(CCCN(CCCn4c(=O)[nH]c5ccccc54)C3)C2)cc1OC (centres unmarked)")
"93.1%"
>>> experimental_value("O=C1NCCN(C(=O)c2[nH]nc3c2CCCCC3)C1Cc1ccccc1-c1ccc(F)cc1 (centres unmarked)")
"98.1%"
>>> experimental_value("OC(CNC1CCN(Cc2ccccc2)CC1)COc1ccc2c(c1)OCO2 (centres unmarked)")
"96.5%"
>>> experimental_value("S=C(Nc1ccccc1)N(Cc1ccccc1)Cc1ccncc1")
"96.8%"
>>> experimental_value("Cc1ccc2cc(CNc3ccc4[nH]ncc4c3)c(=O)[nH]c2c1")
"86.1%"

----------
protocol.text: in vitro
condition.summary: human, hela cells, % viability
The reader will find reported viability at 28.5 h, 10 µM values listed item by item below.
measure.name: viability at 28.5 h, 10 µM (%)

>>> experimental_value("CC(Oc1cccc(F)c1)C(=O)N(C)Cc1cccnc1 (centres unmarked)")
95.5
>>> experimental_value("CC(=O)c1cc(C#N)c(SCC(=O)O)nc1C")
95.8
>>> experimental_value("Cc1ccc(CNCCNCCO)s1 [CBK278168C]")
108
>>> experimental_value("O=C(O)CCSCC(=O)c1ccc(OC(F)F)cc1")
84.6
>>> experimental_value("CCCC/C=C/c1cn2ccnc2c(Nc2cccc(OCC(=O)N(C)C)c2)n1")
108
>>> experimental_value("Cc1nc(O)cc(CCn2cc(-c3cncnc3)nn2)n1")
96.2
>>> experimental_value("Cn1c2c(c(=O)n(C)c1=O)[C@@H]1C(C[C@](O)(COCc3ccccc3)[C@H]1O)C1(CCC1)N2 (some centres unmarked)")
116
>>> experimental_value("CC(C)=NNC(=N)Nc1ccccc1")
90.4
>>> experimental_value("COc1ccccc1C(NC(=O)C1CCN(CCCN2C(=O)CC3CCCCC3C2=O)CC1)c1ccccn1 (centres unmarked)")
95
>>> experimental_value("CSc1ccccc1C(=O)NCCN(C)C")
90.9
>>> experimental_value("CS(=O)(=O)N1CCc2cc(-c3csc(N)n3)ccc21")
102
>>> experimental_value("O=C(NC1CCN(C(=O)Cn2ccc3ccncc32)CC1)C1CC1")
98.9
>>> experimental_value("CN1CCN(C(=O)CN(Cc2ccccc2)S(C)(=O)=O)CC1")
97.6
>>> experimental_value("Cc1nn(Cc2ccc(F)cc2)c(C)c1NC(=O)c1cnn2c(C(F)(F)F)cc(-c3ccccc3)nc12")
96.7
>>> experimental_value("O=C(NC(c1ccccc1)c1ccsc1)C1CCN(C/C=C/c2ccccc2)CC1 (centres unmarked)")
89.4
>>> experimental_value("O=C1N(Cc2ccc(Br)cc2)CCc2cncn21")
79.7
>>> experimental_value("CCSc1nnc2c(n1)OC(C1CC=C(C)CC1)Nc1ccccc1-2 (centres unmarked)")
95.5
>>> experimental_value("COc1ccc(C(C)C)cc1-c1cnc(N)c(Nc2ccc3[nH]ccc3c2)n1")
97.1
>>> experimental_value("CC(C)[C@@H](CO)n1c(=O)[nH]c2ncc(-c3cccc4cccnc34)nc21")
102
>>> experimental_value("Cc1nn(C)c(C)c1CNC(=O)N1CCN(CC(F)F)CC1")
102
